Hi there, I'd appreciate the recorded Kd for every entry that follows.
# tgt: T1, biotinylated C-terminal Avitagged NDST1 (Homo sapiens, UniProt P52848, biotin on the C-terminal Avitag (BirA biotin-protein ligase))
# T1 construct: human N-deacetylase-N-sulfotransferase 1 (NDST1) with a C-terminal Avitag, made by PCR with tailed primers and subcloned into pOMNIBac; also called biotinylated NDST1; source: insect cells (baculovirus, pOMNIBac), purified; biotinylated with the BirA kit, then a final round of SEC; not shown: Avitag, C-terminal, kept
# protocol_summary: BLI; biotinylated NDST1 immobilised on Octet SA biosensors, nanobodies in PBS-T, 25 °C, 1000 rpm; steady-state responses fitted to a 1:1 model
# cond: both partners purified
Answers are plain numbers, in nM.

Worked examples follow.
binder	Kd, nM
nAb7 (VHH, llama VHH from an NDST1-immunized library, selected by phage display; Long CDR3 loop R98-F116; also called anti-NDST1 nanobody 7; source: E. coli WK6, periplasmic extract, purified (HisTrap, SEC)) VHH: QVQLVESGGGSVQAGGSLRLSCAASGFNVDDYAIGWFRQSPGKEREGVSCIGGDGTTYYENSVKGRFTVSSDKRDNTVYLQMNNLRPEDTAIYFCAADRSKYCVGKYFSTPSQYDFWGRGTHVTVSS	120
nAb6 (VHH, llama VHH from an NDST1-immunized library, selected by phage display; also called anti-NDST1 nanobody 6; source: E. coli WK6, periplasmic extract, purified (HisTrap, SEC)) VHH: QVQLVESGGDLVQPGGSLRLSCAASKTIFVISDMGWYRQAPGKQRELVAMITSGGTTNYADSVKGRFTISRDNTQNTVWLQMNSLKPEDTAVYYCYARVERWRPTDSWGQGTQVTVSS	470
nAb1 (VHH, llama VHH from an NDST1-immunized library, selected by phage display; also called anti-NDST1 nanobody 1; source: E. coli WK6, periplasmic extract, purified (HisTrap, SEC)) VHH: QVQLVESGGGLVQAGGSLRLSCAASDRTFTTYAMAWFRRAPPGKEREFVASIRWDGFGTYYTDSVKGRFTISRDSAKNEAYLQMNSLRPEDTGVYYCAAGLLFGNTKGYDHWGQGTQVTVSS	2670

Could you share which Kd value was measured for nAb13 (VHH, in PDB 8CHS nAb13 is modeled only as an all-Calpha chain derived from the nAb7 structure; llama VHH from an NDST1-immunized library, selected by phage display; also called anti-NDST1 nanobody 13; source: E. coli WK6, periplasmic extract, purified (HisTrap, SEC)) VHH: QVQLVESGGGLVQSGGSLRLSCTASRRASSTIGWFRQAPGKEREFVAGINWSLETATYQDSIKDRFTISRDNANNTVYLQMNSLKPEDTAVYYCAASPYRVMGDTTLYPYWGQGTQVTVSS ?
240
